Cited source: patent US8487093B2

Molecular target: UniProtKB Q9F663
Sequence (Q9F663 25-293 limits assumed): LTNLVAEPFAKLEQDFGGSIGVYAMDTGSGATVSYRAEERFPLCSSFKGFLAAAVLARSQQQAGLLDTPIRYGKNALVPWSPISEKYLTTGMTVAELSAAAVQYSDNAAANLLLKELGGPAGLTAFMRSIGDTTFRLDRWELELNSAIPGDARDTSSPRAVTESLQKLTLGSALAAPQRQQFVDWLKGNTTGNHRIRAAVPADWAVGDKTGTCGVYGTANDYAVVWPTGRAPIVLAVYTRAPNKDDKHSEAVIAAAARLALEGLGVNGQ
Assay: biochemical
Details: Table 3; read-out: K.p. KPC-2 IC50
Could you please report measured pIC50 for the items listed next?
Answers are plain numbers, as −log10 of the molar value.

# count of solved cases: 5
// query pIC50 value for entry CN(C(=O)[C@@H]1CC[C@@H]2CN1C(=O)N2OS(=O)(=O)O)C1CCNCC1 [Example 48]
5.60

// query pIC50 value for entry N[C@@H]1CCN(C(=O)[C@@H]2CC[C@@H]3CN2C(=O)N3OS(=O)(=O)O)C1 [Example 54]
5.49

// query pIC50 value for entry O=C(NCC1CCCCN1)[C@@H]1CC[C@@H]2CN1C(=O)N2OS(=O)(=O)O (stereo partly drawn) [Example 39]
6.72

// query pIC50 value for entry O=C(O[C@@H]1CCNC[C@H]1F)[C@@H]1CC[C@@H]2CN1C(=O)N2OS(=O)(=O)O [Example 99]
8.10

// query pIC50 value for entry CC1(COC(=O)[C@@H]2CC[C@@H]3CN2C(=O)N3OS(=O)(=O)O)CCNCC1 [Example 113]
8.10

Please look at the items below and tell me pIC50 for each one, in order.
1. CN(C)c1cc(NC(=O)[C@@H]2CC[C@@H]3CN2C(=O)N3OS(=O)(=O)O)ccn1 [Example 8]
2. O=C(OCCN1CCCCC1)[C@@H]1CC[C@@H]2CN1C(=O)N2OS(=O)(=O)O [Example 111]
3. O=C(NC1C2CNCC21)[C@@H]1CC[C@@H]2CN1C(=O)N2OS(=O)(=O)O (stereo partly drawn) [Example 47]
4. O=C(O)c1ccc(NC(=O)[C@@H]2CC[C@@H]3CN2C(=O)N3OS(=O)(=O)O)cc1 [Example 67]
5. O=C(O[C@@H]1CNOC1)[C@@H]1CC[C@@H]2CN1C(=O)N2OS(=O)(=O)O [Example 108]
6. O=C(N[C@@H]1CCNC[C@@H]1F)[C@@H]1CC[C@@H]2CN1C(=O)N2OS(=O)(=O)O [Example 25]
7. CN1CCN=C1NC(=O)[C@@H]1CC[C@@H]2CN1C(=O)N2OS(=O)(=O)O [Example 87]

1: 7.80; 2: 7.70; 3: 5.00; 4: 8.00; 5: 7.96; 6: 6.57; 7: 6.08

Please look at the items below and tell me pIC50 for each one, in order.
1. O=C(OCC1CNCCCO1)[C@@H]1CC[C@@H]2CN1C(=O)N2OS(=O)(=O)O (stereo partly drawn) [Example 114]
2. O=C(O[C@H]1CNOC1)[C@@H]1CC[C@@H]2CN1C(=O)N2OS(=O)(=O)O [Example 107]
3. O=C(O[C@H]1CNCC[C@H]1F)[C@@H]1CC[C@@H]2CN1C(=O)N2OS(=O)(=O)O [Example 102]
4. CNCc1ccc(NC(=O)[C@@H]2CC[C@@H]3CN2C(=O)N3OS(=O)(=O)O)cc1 [Example 60]
5. O=C(O[C@H]1CNCC[C@@H]1F)[C@@H]1CC[C@@H]2CN1C(=O)N2OS(=O)(=O)O [Example 101]
6. O=C(NCCN1CCNCC1)[C@@H]1CC[C@@H]2CN1C(=O)N2OS(=O)(=O)O [Example 46]
7. O=C(Nc1ccc2c(c1)CCNC2)[C@@H]1CC[C@@H]2CN1C(=O)N2OS(=O)(=O)O [Example 16]
8. NCc1ccnc(NC(=O)[C@@H]2CC[C@@H]3CN2C(=O)N3OS(=O)(=O)O)c1 [Example 76]

1. 7.96
2. 7.96
3. 8.40
4. 7.25
5. 7.82
6. 7.02
7. 7.72
8. 5.89

Please look at the items below and tell me pIC50 for each one, in order.
1. NCc1ccccc1NC(=O)[C@@H]1CC[C@@H]2CN1C(=O)N2OS(=O)(=O)O [Example 59]
2. O=C(Nc1ccncn1)[C@@H]1CC[C@@H]2CN1C(=O)N2OS(=O)(=O)O [Example 84]
3. NS(=O)(=O)c1ccc(NC(=O)[C@@H]2CC[C@@H]3CN2C(=O)N3OS(=O)(=O)O)cc1 [Example 69]
4. O=C(O[C@H]1CCNC[C@H]1F)[C@@H]1CC[C@@H]2CN1C(=O)N2OS(=O)(=O)O [Example 98]
5. O=C(Nc1cc(N2CCCC2)nc(N2CCCC2)c1)[C@@H]1CC[C@@H]2CN1C(=O)N2OS(=O)(=O)O [Example 73]
6. NCc1ccc(NC(=O)[C@@H]2CC[C@@H]3CN2C(=O)N3OS(=O)(=O)O)cc1 [Example 57]
7. O=C(N[C@H]1CCCNC[C@H]1F)[C@@H]1CC[C@@H]2CN1C(=O)N2OS(=O)(=O)O [Example 36]

6.96
7.26
7.66
8.05
6.89
7.14
6.89

----------
Could you please report measured log10(IC50) for the items listed next?
Target: AmpC (P. aeruginosa) (Pseudomonas aeruginosa (strain ATCC 15692 / DSM 22644 / CIP 104116 / JCM 14847 / LMG 12228 / 1C / PRS 101 / PAO1), UniProt P24735)
Sequence (P24735 27-397): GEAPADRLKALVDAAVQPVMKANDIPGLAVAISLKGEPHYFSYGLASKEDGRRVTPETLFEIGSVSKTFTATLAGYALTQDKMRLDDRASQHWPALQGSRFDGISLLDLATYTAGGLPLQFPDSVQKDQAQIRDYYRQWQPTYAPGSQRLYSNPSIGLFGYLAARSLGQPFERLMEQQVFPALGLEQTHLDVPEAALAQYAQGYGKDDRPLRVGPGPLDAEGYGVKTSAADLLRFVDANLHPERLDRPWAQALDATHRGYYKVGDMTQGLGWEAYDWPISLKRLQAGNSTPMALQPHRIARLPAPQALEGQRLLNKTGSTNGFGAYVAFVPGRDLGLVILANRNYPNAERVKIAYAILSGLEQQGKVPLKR
Assay: biochemical
Details: Table 3; read-out: P.a. AmpC IC50
A difference of one corresponds to tenfold IC50; all values are log10 with IC50 in nM.

# count of solved cases: 5
// query log10(IC50) value for entry O=C(O)c1ccc(NC(=O)[C@@H]2CC[C@@H]3CN2C(=O)N3OS(=O)(=O)O)cc1
1.04

// query log10(IC50) value for entry O=C(N[C@@H]1CNC[C@H]1O)[C@@H]1CC[C@@H]2CN1C(=O)N2OS(=O)(=O)O
3.40

// query log10(IC50) value for entry NC(=O)c1ccc(NC(=O)[C@@H]2CC[C@@H]3CN2C(=O)N3OS(=O)(=O)O)cc1
0.85

// query log10(IC50) value for entry O=C(Nc1ccc(N2CCOCC2)cn1)[C@@H]1CC[C@@H]2CN1C(=O)N2OS(=O)(=O)O
0.70

// query log10(IC50) value for entry O=C(Nc1cnccn1)[C@@H]1CC[C@@H]2CN1C(=O)N2OS(=O)(=O)O
0.78

Please look at the items below and tell me log10(IC50) for each one, in order.
1. O=C(Nc1ccc(N2CCNCC2)cn1)[C@@H]1CC[C@@H]2CN1C(=O)N2OS(=O)(=O)O
2. COc1cc(NC(=O)[C@@H]2CC[C@@H]3CN2C(=O)N3OS(=O)(=O)O)ccn1
3. CN(C)C1CCN(C(=O)[C@@H]2CC[C@@H]3CN2C(=O)N3OS(=O)(=O)O)C1 (stereo partly shown)
4. N[C@H]1CCN(C(=O)[C@@H]2CC[C@@H]3CN2C(=O)N3OS(=O)(=O)O)C1
5. CN(C(=O)[C@@H]1CC[C@@H]2CN1C(=O)N2OS(=O)(=O)O)C1CCNCC1

[0.30, 1.04, 2.43, 3.15, 2.46]

----------
Target: AmpC (P. aeruginosa) (Pseudomonas aeruginosa (strain ATCC 15692 / DSM 22644 / CIP 104116 / JCM 14847 / LMG 12228 / 1C / PRS 101 / PAO1))
Assay: biochemical
Details: Table 3; read-out: P.a. AmpC IC50
Rule: measured IC50 below 0.2 µM gets 1; anything equal to or greater than 0.2 µM gets -1.

Worked examples, 3 compounds total:
hey, is IC50 for O=C(NC1CNC1)[C@@H]1CC[C@@H]2CN1C(=O)N2OS(=O)(=O)O [Example 20] lower than 0.2 µM or not?
-1

hey, is IC50 for Cn1ccnc1NC(=O)[C@@H]1CC[C@@H]2CN1C(=O)N2OS(=O)(=O)O [Example 86] lower than 0.2 µM or not?
-1

hey, is IC50 for NCc1ccc(NC(=O)[C@@H]2CC[C@@H]3CN2C(=O)N3OS(=O)(=O)O)cc1 [Example 57] lower than 0.2 µM or not?
1

Others:
hey, is IC50 for NCC1CCCCN1C(=O)[C@@H]1CC[C@@H]2CN1C(=O)N2OS(=O)(=O)O (some centres unmarked) [Example 49] lower than 0.2 µM or not?
-1

hey, is IC50 for O=C(Nc1cc(N2CCCC2)nc(N2CCCC2)c1)[C@@H]1CC[C@@H]2CN1C(=O)N2OS(=O)(=O)O [Example 73] lower than 0.2 µM or not?
-1

hey, is IC50 for O=C(NC1CCCNC1)[C@@H]1CC[C@@H]2CN1C(=O)N2OS(=O)(=O)O (single isomer, unassigned) [Example 19b] lower than 0.2 µM or not?
-1

hey, is IC50 for CN(C)c1cc(NC(=O)[C@@H]2CC[C@@H]3CN2C(=O)N3OS(=O)(=O)O)ccn1 [Example 8] lower than 0.2 µM or not?
1

----------
Could you please report measured pIC50 for the items listed next?
Biological target: AmpC (P. aeruginosa) (Pseudomonas aeruginosa (strain ATCC 15692 / DSM 22644 / CIP 104116 / JCM 14847 / LMG 12228 / 1C / PRS 101 / PAO1), UniProt P24735)
Assay: biochemical
Conditions: Table 3; read-out: P.a. AmpC IC50
Answers are plain numbers, as −log10 of the molar value.

// query pIC50 value for entry O=C(N[C@H]1CCCNC[C@H]1F)[C@@H]1CC[C@@H]2CN1C(=O)N2OS(=O)(=O)O
7.74

// query pIC50 value for entry NS(=O)(=O)c1ccc(NC(=O)[C@@H]2CC[C@@H]3CN2C(=O)N3OS(=O)(=O)O)cc1
8.15

Now for another entry.
// query pIC50 value for entry N[C@@H]1CCN(C(=O)[C@@H]2CC[C@@H]3CN2C(=O)N3OS(=O)(=O)O)C1
6.08
